# experimental_details: PDMS sheets cleaned by Soxhlet with ethyl acetate; batch shaking method with a mixture of all chemicals at several PDMS-mass to water-volume ratios and spiked levels; vials shaken on an orbital shaker at room temperature in the dark, sampled at two equilibration times; PDMS extracts and water quantified by LC-HRMS (Orbitrap); D from the slope of C_PDMS on C_w or their ratio; value is the mean over that pH's experiments (individual experiments in the SI's concentrations table), sd is the table's stdev
# protocol_conditions: PDMS (polydimethylsiloxane silicone sheet); phosphate buffer at three target pH values (the paper's methods); pH 7.4
assay_readout: log D PDMS/w (apparent distribution ratio at the stated pH)

Answered examples (5):
molecule	result
CCCCc1nc(Cl)c(CO)n1Cc1ccc(-c2ccccc2-c2nn[nH]n2)cc1	-0.01 log units; D and K as the pape
CC(C)OC(=O)C(C)(C)Oc1ccc(C(=O)c2ccc(Cl)cc2)cc1	4.273 log units; D and K as the pape
N#Cc1nn(-c2c(Cl)cc(C(F)(F)F)cc2Cl)c(N)c1SC(F)(F)F	2.459 log units; D and K as the pape
Cc1cccc(C)c1N(Cn1cccn1)C(=O)CS(C)=O (stereo not drawn)	0.5892 log units; D and K as the pape
Cc1nccn1CC1CCc2c(c3ccccc3n2C)C1=O (stereo not drawn)	1.409 log units; D and K as the pape

Task: Which measured log D PDMS/w (apparent distribution ratio at the stated pH) value corresponds to CSc1nc(NC2CC2)nc(NC(C)(C)C)n1 ?
Output: 2.689 log units; D and K as the pape
